The measurements presented in this section are drawn from the kinase profiling compilation of Christmann-Franck et al. (2016).

# tested target: TTK (human) (UniProt P33981)
# Sequence (P33981 whole entry, looked up): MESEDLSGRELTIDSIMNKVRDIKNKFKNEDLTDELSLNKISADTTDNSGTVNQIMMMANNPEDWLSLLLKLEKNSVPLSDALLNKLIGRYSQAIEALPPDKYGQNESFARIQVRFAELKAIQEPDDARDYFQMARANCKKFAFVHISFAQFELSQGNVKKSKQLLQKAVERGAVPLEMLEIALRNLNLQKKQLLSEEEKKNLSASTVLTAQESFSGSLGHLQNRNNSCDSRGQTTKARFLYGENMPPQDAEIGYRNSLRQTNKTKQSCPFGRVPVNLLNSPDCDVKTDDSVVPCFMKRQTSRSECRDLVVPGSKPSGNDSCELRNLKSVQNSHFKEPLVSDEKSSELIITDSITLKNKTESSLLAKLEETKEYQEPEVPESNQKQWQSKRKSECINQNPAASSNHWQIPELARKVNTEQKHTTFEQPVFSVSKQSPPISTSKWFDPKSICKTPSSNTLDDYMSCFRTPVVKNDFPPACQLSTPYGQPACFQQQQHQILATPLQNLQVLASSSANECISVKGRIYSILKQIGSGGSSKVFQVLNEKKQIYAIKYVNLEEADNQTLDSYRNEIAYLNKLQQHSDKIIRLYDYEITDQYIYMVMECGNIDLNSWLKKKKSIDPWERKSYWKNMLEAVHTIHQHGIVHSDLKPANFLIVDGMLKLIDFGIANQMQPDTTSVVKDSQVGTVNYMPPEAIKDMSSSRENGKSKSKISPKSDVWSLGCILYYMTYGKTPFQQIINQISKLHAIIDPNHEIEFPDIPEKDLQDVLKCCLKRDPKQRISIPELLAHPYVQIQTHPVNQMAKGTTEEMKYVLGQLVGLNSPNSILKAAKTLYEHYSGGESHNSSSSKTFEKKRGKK
# protocol notes: KINOMEscan competition binding
# stated conditions: compound 10.0 µM
Please use class 1 for kinase still bound, per cent of control under 10% and class 0 for everything else, ties included.

compound	assigned class
COc1cc(C(=O)NC2CCC(O)CC2)ccc1Nc1ncc2c(n1)N(C1CCCC1)[C@@H]1CCC[C@@H]1C(=O)N2C (some centres undefined)	class 0
CN1C(=O)CCN(C2CCCC2)c2nc(Nc3ccc(N4CCC(O)CC4)cn3)ncc21	class 1
CCN1C(=O)CCN(C2CCCC2)c2nc(Nc3ccc(N4CCC(O)CC4)cn3)ncc21	class 1
COc1cc(C(=O)NC2CCN(C)CC2)ccc1Nc1ncc2c(n1)N(CCc1ccccc1)CCC(=O)N2C	class 1
CCOc1cc(N2CCC(O)CC2)ccc1Nc1ncc2c(n1)N(C)c1ccccc1C(=O)N2C	class 0
COc1cc(N2CCC(N3CCN(C)CC3)CC2)ccc1Nc1ncc2c(n1)N(C1CCCC1)C(C)CC(=O)N2C (centres undefined)	class 1
COc1cc(N2CCN(C)CC2)ccc1Nc1ncc2c(n1)N1CCC[C@H]1CC(=O)N2C	class 1
N=C1NC(=O)/C(=C/c2ccc(-c3cccc4cc[nH]c34)o2)S1	class 0
CSC1=NC(=O)/C(=C/c2ccc(-c3ccc(S(N)(=O)=O)cc3)o2)S1	class 0
COc1cc(C(=O)NC2CCN(C)CC2)ccc1Nc1ncc2c(n1)N(C1CCC(O)CC1)CCC(=O)N2C (centres undefined)	class 1
COc1cc(N2CCN(C)CC2)ccc1Nc1ncc2c(n1)N(C1CCCC1)C(C)CC(=O)N2 (centres undefined)	class 0
CS(=O)(=O)Nc1ccc(-c2ncc(/C=C3\SC(=N)NC3=O)s2)cc1	class 0
CCOc1cc(N2CCC(O)CC2)ccc1Nc1ncc2c(n1)N(C1CCCC1)CCC(=O)N2CC	class 1
CCN(CC)C1CCN(c2ccc(Nc3ncc4c(n3)N3CCCC3C=CN4C)c(OC(C)C)c2)CC1 (centres undefined)	class 1
COc1cc(N2CCC(O)CC2)ccc1Nc1ncc2c(n1)N1CCc3cccc(c31)C(=O)N2C	class 1
COc1cc(N2CCN(C)CC2)ccc1Nc1ncc2c(n1)N(C)c1ccccc1N(C)C2=O	class 0
COc1cc(N2CCN(C)CC2)ccc1Nc1ncc2c(n1)N(C)c1sccc1C(=O)N2C	class 0
CCN1C(=O)CCN(C2CCCC2)c2nc(Nc3ccc(N4CCC(O)CC4)cc3OC(C)C)ncc21	class 1
NS(=O)(=O)c1ccc(-c2ccc(/C=C3\C(=O)Nc4cccc(Br)c43)o2)cc1	class 0
COc1cc(N2CCC(O)CC2)ccc1Nc1ncc2c(n1)N(C)c1ccccc1C(=O)N2C	class 0
COc1cc(N2CCN(C)CC2)ccc1Nc1ncc2c(n1)N(C1CCCC1)C(C)CC(=O)N2C (centres undefined)	class 1
N=C1NC(=O)/C(=C/c2ccc(-c3cncc4ccccc34)o2)S1	class 1
CN1CCN(c2ccc(C(=O)Nc3ncc4c(n3)N(C)c3ccccc3C(=O)N4C)cc2)CC1	class 0
CN1C(=O)[C@H]2CCC[C@H]2N(C2CCCC2)c2nc(Nc3ccc4ncccc4c3)ncc21	class 0
